Values were extracted from the supplement of paper PMC8975748.

Tested on: Saccharomyces cerevisiae BY4741 SeMeCo community
Assay: z-score of prototroph abundance vs DMSO median; higher = larger share of this subpopulation than in DMSO controls
Details: 10 µM; 24 h; SM minimal medium; subpopulation (auxotrophy): Prototroph
Structures can show the parent of a compound that is named as a salt.
// Not fulfilled strictly below -0.5 in z-score of prototroph abundance; Fulfilled otherwise

Worked examples follow.
Q) Would you say CC[C@@H]1/C=C(\C)C[C@H](C)C[C@H](OC)[C@H]2O[C@@](O)(C(=O)C(=O)N3CCCC[C@H]3C(=O)O[C@H](/C(C)=C/[C@@H]3CC[C@H](Cl)[C@H](OC)C3)[C@H](C)[C@@H](O)CC1=O)[C@H](C)C[C@@H]2OC shows z-score of prototroph abundance at minimum -0.5?
A) Not fulfilled

Q) Would you say COc1c(N2C[C@@H]3CCCN[C@@H]3C2)c(F)cc2c(=O)c(C(=O)O)cn(C3CC3)c12 [Moxifloxacin HCl] shows z-score of prototroph abundance at minimum -0.5?
A) Not fulfilled

Q) Would you say CC[C@@]1(O)C(=O)OCc2c1cc1n(c2=O)Cc2cc3cc(O)ccc3nc2-1 [Hydroxy Camptothecine] shows z-score of prototroph abundance at minimum -0.5?
A) Fulfilled

Q) Would you say C=CCCCCCCCCC(=O)[O-].C=CCCCCCCCCC(=O)[O-].[Zn+2] [Zinc Undecylenate] shows z-score of prototroph abundance at minimum -0.5?
A) Fulfilled

New cases:
Q) Would you say CO[C@@H]1[C@H](OC(=O)/C=C/C=C/C=C/C=C/C(=O)O)CC[C@]2(CO2)[C@H]1[C@@]1(C)O[C@@H]1CC=C(C)C shows z-score of prototroph abundance at minimum -0.5?
A) Not fulfilled

Q) Would you say c1cnc2cc3c(cc2n1)[C@@H]1CNC[C@H]3C1 [Varenicline Tartrate] shows z-score of prototroph abundance at minimum -0.5?
A) Fulfilled

Q) Would you say N=C(N)NC(=O)c1nc(Cl)c(N)nc1N [Amiloride HCl dihydrate] shows z-score of prototroph abundance at minimum -0.5?
A) Fulfilled

Q) Would you say CCN(CC)CCOC(=O)c1ccc(N)cc1 [Procaine] shows z-score of prototroph abundance at minimum -0.5?
A) Fulfilled

Q) Would you say Nc1ccc(S(=O)(=O)Nc2cnc3ccccc3n2)cc1 [Sulfaquinoxaline sodium] shows z-score of prototroph abundance at minimum -0.5?
A) Not fulfilled

Q) Would you say Cc1onc(-c2c(F)cccc2Cl)c1C(=O)N[C@@H]1C(=O)N2[C@@H]1SC(C)(C)[C@@H]2C(=O)O [Flucloxacillin sodium] shows z-score of prototroph abundance at minimum -0.5?
A) Not fulfilled

Q) Would you say O=C(O)c1cn(-c2ccc(F)cc2)c2cc(N3CCNCC3)c(F)cc2c1=O [Sarafloxacin HCl] shows z-score of prototroph abundance at minimum -0.5?
A) Fulfilled

Q) Would you say COc1ccccc1OCC(O)CN1CCN(CC(=O)Nc2c(C)cccc2C)CC1 (stereo unspecified) [Ranolazine 2HCl] shows z-score of prototroph abundance at minimum -0.5?
A) Fulfilled

Q) Would you say CCCCNC(=O)NS(=O)(=O)c1ccc(C)cc1 [Tolbutamide] shows z-score of prototroph abundance at minimum -0.5?
A) Fulfilled

Q) Would you say O=C1c2c(O)ccc(O)c2C(=O)c2c(NCCNCCO)ccc(NCCNCCO)c21 [Mitoxantrone 2HCl] shows z-score of prototroph abundance at minimum -0.5?
A) Not fulfilled

Q) Would you say N=C(N)NC(=O)c1nc(Cl)c(N)nc1N [Amiloride HCl] shows z-score of prototroph abundance at minimum -0.5?
A) Fulfilled
